Target: cynomolgus Siglec-2/CD22 (Macaca fascicularis, UniProt A0A2K5WCZ6)
Sequence (A0A2K5WCZ6 entry or part of it): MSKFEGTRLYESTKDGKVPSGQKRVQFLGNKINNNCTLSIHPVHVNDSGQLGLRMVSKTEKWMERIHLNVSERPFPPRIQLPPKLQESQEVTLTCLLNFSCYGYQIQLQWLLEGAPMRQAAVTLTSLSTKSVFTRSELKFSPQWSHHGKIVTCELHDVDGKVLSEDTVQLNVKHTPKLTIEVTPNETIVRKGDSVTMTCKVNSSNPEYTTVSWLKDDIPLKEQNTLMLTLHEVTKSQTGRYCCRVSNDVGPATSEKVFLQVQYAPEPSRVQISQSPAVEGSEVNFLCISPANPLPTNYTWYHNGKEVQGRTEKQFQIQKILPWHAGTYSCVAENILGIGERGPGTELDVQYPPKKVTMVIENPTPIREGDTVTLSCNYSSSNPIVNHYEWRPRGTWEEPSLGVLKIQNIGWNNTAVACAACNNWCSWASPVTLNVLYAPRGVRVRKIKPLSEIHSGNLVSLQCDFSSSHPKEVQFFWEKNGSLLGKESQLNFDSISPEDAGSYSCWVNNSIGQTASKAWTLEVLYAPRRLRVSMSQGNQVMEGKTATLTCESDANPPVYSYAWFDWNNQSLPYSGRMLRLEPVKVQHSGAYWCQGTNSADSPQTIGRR
Assay: biochemical
Conditions: SPR, steady-state analysis; read-out: Affinity cyno CD22
assay_endpoint: Kd

Problem: Consider the compound C#CCOCCOCCO[C@]1(C(=O)O)C[C@H](O)[C@@H](NC(=O)CO)[C@H]([C@H](O)[C@H](O)CNC(=O)Cc2ccc(-c3ccc(=O)[nH]c3)cc2)O1 [Compound 74] and give its measured Kd.
Solution: 1 to 10 µM

Problem: Now this one: C#CCCOc1ccc(CO[C@]2(C(=O)O)C[C@H](O)[C@@H](NC(=O)CO)[C@H]([C@H](O)[C@H](O)CNC(=O)Cc3ccc(N4CCC(NC(C)=O)CC4)cc3)O2)cc1 [Compound 137]
Solution: 1 to 10 µM

***
Problem: Consider the compound C#CCOCCCCCCO[C@]1(C(=O)O)C[C@H](O)[C@@H](NC(=O)C(=O)Nc2ccccc2)[C@H]([C@H](O)[C@H](O)CNC(=O)Cc2ccc(Cl)cc2)O1 [Compound 188] and give its measured Kd.
Solution: < 1 µM

---

Molecular target: human Siglec-2/CD22 protein (Homo sapiens, UniProt P20273)
Sequence (P20273 20-847): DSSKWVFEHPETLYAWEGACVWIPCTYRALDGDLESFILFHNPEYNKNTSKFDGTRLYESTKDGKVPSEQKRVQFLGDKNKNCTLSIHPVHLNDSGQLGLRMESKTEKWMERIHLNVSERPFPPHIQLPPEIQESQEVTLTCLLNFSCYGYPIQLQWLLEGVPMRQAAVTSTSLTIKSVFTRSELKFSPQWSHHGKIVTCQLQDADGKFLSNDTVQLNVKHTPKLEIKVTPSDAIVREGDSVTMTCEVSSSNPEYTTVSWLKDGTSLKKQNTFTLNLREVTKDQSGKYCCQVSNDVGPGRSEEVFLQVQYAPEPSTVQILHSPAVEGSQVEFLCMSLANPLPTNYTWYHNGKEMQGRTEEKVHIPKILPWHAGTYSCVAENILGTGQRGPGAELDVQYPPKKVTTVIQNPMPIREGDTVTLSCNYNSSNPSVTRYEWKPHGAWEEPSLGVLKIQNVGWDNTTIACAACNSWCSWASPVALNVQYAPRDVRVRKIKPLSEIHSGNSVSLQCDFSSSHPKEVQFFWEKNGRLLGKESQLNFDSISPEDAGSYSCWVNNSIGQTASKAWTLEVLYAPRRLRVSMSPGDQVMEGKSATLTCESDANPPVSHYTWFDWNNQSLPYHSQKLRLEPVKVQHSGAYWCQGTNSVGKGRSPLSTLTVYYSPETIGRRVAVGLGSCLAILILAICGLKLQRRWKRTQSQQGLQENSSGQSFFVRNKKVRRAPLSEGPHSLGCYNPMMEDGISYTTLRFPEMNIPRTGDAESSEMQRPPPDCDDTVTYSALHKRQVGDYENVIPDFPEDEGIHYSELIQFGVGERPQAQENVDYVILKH
Experiment: SPR binding affinity to human CD22
Details: steady-state analysis
assay_endpoint: Kd

Some entries whose results are on file:
Problem: Consider the molecule C#CCOCCOCCO[C@]1(C(=O)O)C[C@H](O)[C@@H](NC(=O)CC#N)[C@H]([C@H](O)[C@H](O)CNC(=O)Cc2ccc(-c3ccc(O)cc3)cc2)O1 [Compound 58] and give its measured Kd.
Solution: 1 to 10 µM

Problem: Now this one: C#CCOc1ccc(CO[C@]2(C(=O)O)C[C@H](O)[C@@H](NC(=O)CO)[C@H]([C@H](O)[C@H](O)CNC(=O)Cc3ccc(-c4ccc(O)cc4)cc3C)O2)cc1 [Compound 56]
Solution: < 1 µM

Problem: Now this one: C#CCOCCCCCCO[C@]1(C(=O)O)C[C@H](O)[C@@H](NC(=O)CO)[C@H]([C@H](O)[C@H](O)CNC(=O)Cc2ccc(-c3ccc4[nH]cc(C)c4c3)cc2)O1 [Compound 1]
Solution: < 1 µM

Problem: Now this one: CC(=O)NCCOCCOCCOCCOCCC(=O)NCCCCCCO[C@]1(C(=O)O)C[C@H](O)[C@@H](NC(=O)CO)[C@H]([C@H](O)[C@H](O)CNC(=O)Cc2ccc(-c3nnn[nH]3)cc2)O1 [Cpd. 235]
Solution: < 1 µM

Problem: Now this one: C#CCCOc1ccc(CS[C@]2(C(=O)O)C[C@H](O)[C@@H](NC(=O)CO)[C@H]([C@H](O)[C@H](O)CNC(=O)Cc3cccc(O)c3)O2)cc1 [Compound 149]
Solution: < 1 µM

Problem: Now this one: C#CCOCCOCCO[C@]1(C(=O)O)C[C@H](O)[C@@H](NC(=O)CO)[C@H]([C@H](O)[C@H](O)CNC(=O)Cc2ccc3[nH]ccc3c2)O1 [Compound 196]
Solution: < 1 µM

Problem: Now this one: C#CCCCCCCO[C@]1(C(=O)O)C[C@H](O)[C@@H](NC(=O)CO)[C@H]([C@H](O)[C@H](O)CNC(=O)c2ccc(Cl)cc2)O1 [Cpd. 267]
Solution: < 1 µM

Problem: Now this one: C#CCOCCCCCCS[C@]1(C(=O)O)C[C@H](O)[C@@H](NC(=O)CO)[C@H]([C@H](O)[C@H](O)CNC(=O)Cc2ccc(Cl)cc2)O1 [Compound 186]
Solution: < 1 µM

Problem: Now this one: C#CCNc1c(NCCCCCCO[C@]2(C(=O)O)C[C@H](O)[C@@H](NC(N)=O)[C@H]([C@H](O)[C@H](O)CNC(=O)Cc3ccc(-c4ccccc4)cc3)O2)c(=O)c1=O [Compound 224]
Solution: < 1 µM

Problem: Now this one: C#CCOCCCCCCO[C@]1(C(=O)O)C[C@H](O)[C@@H](NC(=O)CO)[C@H]([C@H](O)[C@H](O)CNC(=O)Cc2ccc3cc[nH]c3c2)O1 [Compound 5]
Solution: < 1 µM

Now for the molecule whose Kd we want.
Problem: Consider the molecule C#CCCOc1ccc(CO[C@]2(C(=O)O)C[C@H](O)[C@@H](NC(=O)CO)[C@H]([C@H](O)[C@H](O)CNC(=O)Cc3cccc(N4CCOCC4)c3)O2)cc1 [Compound 140] and give its measured Kd.
Solution: 1 to 10 µM

This collection of values is drawn from patent US20250064941A1.
